Assay: qHTS Assay for Lipid Storage Modulators in Drosophila S3 Cells
Conditions: BODIPY lipid droplet fluorescence, 18-24 h, cells fed with added oleic acid; series mostly up to 46.1 µM
Screen size: about 320,000 compounds; about 2,100 (0.66%) were called active. Not shown: some 53% with an inconclusive outcome. Calls follow the shape of the dose curve; as a rule, active = well fitted inhibition curve with a large enough effect in the signal ratio, with a control signal flat (not every such curve was filed as active); inconclusive = small, poorly fitted or top-dose-only effect, or effect the other way, or a change in a side signal; inactive = flat fitted curve, though single readings scatter; the % refers to the signal ratio. The entries come from a sample that favours actives as a whole.
Labels: active, inactive

>  <compound>
CCn1nc(NS(=O)(=O)c2ccccc2)c2cc3cccc(C)c3nc21

>  <classification>
inactive

$$$$
>  <compound>
c1cnc(N2CCN(c3ccc4ccccc4n3)CC2)nc1

>  <classification>
active

$$$$
>  <compound>
N#CC(C(=O)Nc1ccccc1)=C1CCCCC1

>  <classification>
inactive

$$$$
>  <compound>
Cc1cc(NC(=O)c2cccc(F)c2)no1

>  <classification>
inactive

$$$$
>  <compound>
COc1cc2c(cc1OC)C(c1ccc(O)cc1)NCC2 (stereo not drawn)

>  <classification>
inactive

$$$$
>  <compound>
O=C(NCCCN1CCOCC1)c1ccc2c(c1)N(Cc1ccccc1)C(=O)c1ccccc1S2=O (stereo not drawn)

>  <classification>
inactive

$$$$
>  <compound>
O=C(Nc1cccc(NC(=O)c2cccc(F)c2)n1)c1cccc(F)c1

>  <classification>
active

$$$$
>  <compound>
CCn1nc(NS(=O)(=O)c2ccc(F)cc2)c2cc3cccc(C)c3nc21

>  <classification>
inactive

$$$$
>  <compound>
O=C(N/N=C/c1cccc2ccccc12)c1cccc(F)c1

>  <classification>
active

$$$$
>  <compound>
CC(C)N(C(=O)CSc1nnc(NC(=O)c2cccs2)s1)C(C)C

>  <classification>
inactive

$$$$
>  <compound>
c1ccc(N2CCN(c3ncccn3)CC2)cc1

>  <classification>
inactive

$$$$
>  <compound>
c1ccc(C(c2ccccc2)N2CCN(c3ccc4ccccc4n3)CC2)cc1

>  <classification>
inactive

$$$$
>  <compound>
Cc1cc(C(c2nnnn2Cc2ccccc2)N2CCOCC2)c(C)n1-c1ccc2c(c1)OCO2 (stereo not drawn)

>  <classification>
inactive

$$$$
>  <compound>
COc1ccc(NC(C)=O)cc1S(=O)(=O)NC(Cc1ccccc1)C(=O)O (stereo not drawn)

>  <classification>
inactive

$$$$
>  <compound>
CC(C)C(c1nnnn1C1CCCC1)N(C)C1CCCCC1 (stereo not drawn)

>  <classification>
active

$$$$
>  <compound>
CCn1nc(NS(=O)(=O)c2ccc([N+](=O)[O-])cc2)c2cc3cccc(C)c3nc21

>  <classification>
active

$$$$
>  <compound>
O=C(OCc1ccc(Cl)c(Cl)c1)c1ccc[nH]1

>  <classification>
inactive

$$$$
>  <compound>
c1ccc(-c2cncnc2)cc1

>  <classification>
inactive

$$$$
>  <compound>
COc1ccc(NC(C)=O)cc1S(=O)(=O)NC(Cc1ccccc1)C(=O)NCc1ccccc1C (stereo not drawn)

>  <classification>
active

$$$$
>  <compound>
O=C(Nc1ccc(F)cc1)c1ccc2[nH]c(=O)c(=O)[nH]c2c1

>  <classification>
inactive

$$$$
>  <compound>
CSc1ccc(Cl)c(C(=O)N2CCOc3ccccc32)c1

>  <classification>
inactive

$$$$
>  <compound>
Cc1cccc2cc3c(NC(=O)C(C)(C)C)nn(CC(C)C)c3nc12

>  <classification>
inactive

$$$$
>  <compound>
COC(=O)c1ccc(-c2noc(CN3C[C@H]4CC[C@H]3C4)n2)cc1

>  <classification>
inactive

$$$$
